- Measurement Target: human FABP1 (hFABP1) (Homo sapiens, UniProt P07148)
- Sequence (P07148 whole entry): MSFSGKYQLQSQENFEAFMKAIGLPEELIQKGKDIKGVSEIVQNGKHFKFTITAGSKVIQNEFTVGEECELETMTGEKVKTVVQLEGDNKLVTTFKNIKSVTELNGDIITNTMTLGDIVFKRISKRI
- Procedure Details: DAUDA displacement assay for hFABP1 binding
- Stated Conditions: residual DAUDA-FABP1 fluorescence at saturating ligand (Min of eq. 7)
Experimental Endpoint: Fres (% Fluorescence Remaining) (%)

>>> value("Cc1ccc(C)c(OCCCC(C)(C)C(=O)O)c1 [Gemfibrozil, gemfibrozil]")
18
>>> value("CCc1ccc(CCOc2ccc(CC3SC(=O)NC3=O)cc2)nc1 (stereo not shown) [Pioglitazone, pioglitazone]")
5.2
>>> value("CC(C)Cc1ccc(C(C)C(=O)O)cc1 (stereo not shown) [Ibuprofen, ibuprofen]")
28
>>> value("C[C@@H](C(=O)O)c1ccc(-c2ccccc2)c(F)c1 [R-Flurbiprofen, (R)-flurbiprofen]")
40
>>> value("C[C@H](C(=O)O)c1ccc(-c2ccccc2)c(F)c1 [S-Flurbiprofen, (S)-flurbiprofen]")
48
>>> value("O=C(O)Cc1ccccc1Nc1c(Cl)cccc1Cl [Diclofenac, diclofenac]")
15
>>> value("CCCCC/C=C\\C/C=C\\C/C=C\\C/C=C\\CCCC(=O)O [Arachidonic Acid, arachidonic acid]")
2.2
